Let's look at some compounds and their measured CC50.
System: MDCK
measurementDescription: Cytotoxicity against MDCK cells assessed as cell viability after 72 hrs by MTT assay
Format: cell-based, Canis lupus familiaris
cond: dog

compound	CC50 [µM]
OC1C2CC3CC1CC(NCc1cc(-c4cccs4)on1)(C3)C2 (stereo not given)	116
c1csc(-c2cc(NC34CC5CC(CC(C5)C3)C4)no2)c1	100
c1csc(-c2ncc(CNC34CC5CC(CC(C5)C3)C4)s2)c1	113

---

testSystem: Matrix protein 2 (Influenza A virus (A/Udorn/307/1972(H3N2)))
Sequence (P0DOF8 whole entry): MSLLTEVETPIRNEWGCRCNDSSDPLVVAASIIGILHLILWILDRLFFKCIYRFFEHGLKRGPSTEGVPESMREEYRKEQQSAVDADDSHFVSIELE
measurementDescription: Inhibition of Influenza A virus wild type M2 proton channel infected in Xenopus laevis oocytes after 2 mins by TEVC assay
valueKind: IC50 (nM)

C1CCC2(CC1)CCNCC2 900
